Attribute: cleaved RNA product abundance
test system: Bacillus subtilis; experiment: cleaved RNA product abundance (RNA/gDNA barcode ratio) relative to median wild-type variant (ratio to wild type); higher = more accumulation of the downstream cleavage product; details: experiment (reporter, strain, medium): exp 4a: truncated aprE reporter, strain BJT201 with 2% xylose (RNase J1 expressed); cleavage site: cggR-gapA (positions -7 to +36 mutated)
The answer should be written as a number, with no unit following it.

>>> observed_value("ACAGACGAAGGAGCCGCAAAGAAGTTTTTAAGGGATGAATAATCCCTCAACATAAATATCTCTCACTTATTTAAA")
0.295
>>> observed_value("ACAGACGAAGGAGCCGCAAAGAAGTTATTAAAGAATGAATAATCCCTCAATATAAATATCTCTCACTTATTTAAA")
0.114
>>> observed_value("ACAGACGAAGGAGCCGCAAAGAAGTTATTAAAGGATGAATAATCCCGCAATATAAATATCTCTCACTTATTTAAA")
0.219

Could you now look at the following sequence, please?
Problem: Can you share its cleaved RNA product abundance? I mean this sequence: ACAGACGAAGGAGCCGCAAAGAAGTTATTAAGTGATAAATAATTCCTCAATATAAATATCTCTCACTTATTTAAA
Solution: 0.0999

* * *

system: Bacillus subtilis; test: cleaved RNA product abundance (RNA/gDNA barcode ratio) relative to median wild-type variant (ratio to wild type); higher = more accumulation of the downstream cleavage product; details: experiment (reporter, strain, medium): exp 8a: truncated aprE reporter, strain BJT201 with 2% xylose (RNase J1 expressed); cleavage site: glnRA (positions -5 to +31 mutated)
READOUT_NAME: cleaved RNA product abundance
Response field accepts a number only; no unit should be typed.

>>> observed_value("CGACATGTCCCGCTTCTTTCATTACTCCGTTATCAACTGTTTTGCTATATACATTTACCTTTTAAGAGGAGGAAT")
0.227
>>> observed_value("CGACATGTCCCGCTTCTTTCATTAATCCGTTAGCAACTGTTTAGCTTTATACATTTACCTTTTAAGAGGAGGAAT")
0.192
>>> observed_value("CGACATGTCCCGCTTCTTTCATTAATACATTAGCGACTTTTTTGCTATATACACTTACCTTTTAAGAGGAGGAAT")
0.352

Problem: # value lookup — system Bacillus subtilis, readout cleaved RNA product abundance, item CGACATGTCCCGCTTCTTTCATTAATCCGTTAGCAACTGTATTGCTATATACATTTATCTTTTAAGAGGAGGAAT
Solution: 1.07

* * *

system: Bacillus subtilis; assay: cleaved RNA product abundance (RNA/gDNA barcode ratio) relative to median wild-type variant (ratio to wild type); higher = more accumulation of the downstream cleavage product; details: experiment (reporter, strain, medium): exp 4a: truncated aprE reporter, strain BJT201 with 2% xylose (RNase J1 expressed); cleavage site: cggR-gapA (positions -7 to +36 mutated)
The entries below come with measured cleaved RNA product abundance values attached.
Form: value (number only, do not type unit).

Problem: Dear colleague, I am looking for the recorded cleaved RNA product abundance of the following sequence: ACAGACGAAGGAGCCGCAAAGAAGTTATTAAGGAATGAATAATCTCTCAATATAAATATCTCTCACTTATTTAAA
Solution: 0.155

Problem: Any idea what its cleaved RNA product abundance is? The sequence is ACAGACGAAGGAGCCGCAACGAAGTTATTAAGGTATGAATAATCCCTCAATATAAATATCTCTCACTTATTTAAA
Solution: 0.0862

Problem: Requested field: cleaved RNA product abundance. Item: ACAGACGAAGGAGCCGCAAAGAAGTTATTAGGGGATGAATAATCCCTTAATATAAATATCTCTCACTTATTTAAA
Solution: 0.808

Problem: Form field: reported cleaved RNA product abundance of ACAGACGAAGGAGCCGCTAAGAAGTTCTTAAGGGATGAATAATCCCTCAATACAAATATCTCTCACTTATTTAAA
Solution: 0.0591

Problem: Suppose we examine the sequence ACAGACGAAGGAGCCGCAAAGAAGGTATTAAGGGATGAATAATCCCTCAATATAAATATCTCTCACTTATTTAAA ; what cleaved RNA product abundance value has been reported?
Solution: 1.18

Problem: # cleaved RNA product abundance lookup, item ACAGACGAAGGAGCCGCAAAGAAGTTATTAAGGGATGAATAATCCCTCAATATAAATGTCTCTCACTTATTTAAA
Solution: 0.636

Problem: Tell me the measured cleaved RNA product abundance of ACAGACGAAGGAGCCGCAAAGAAGTTGTTAAGGAATGAATAATCCCTCAATATAAATATCTCTCACTTATTTAAA , please.
Solution: 0.136

* * *

system: Bacillus subtilis; experiment: cleaved RNA product abundance (RNA/gDNA barcode ratio) relative to median wild-type variant (ratio to wild type); higher = more accumulation of the downstream cleavage product; conditions: experiment (reporter, strain, medium): exp 4a: truncated aprE reporter, strain BJT201 with 2% xylose (RNase J1 expressed); cleavage site: cggR-gapA (positions -7 to +36 mutated)
READOUT_NAME: cleaved RNA product abundance
Could you respond with only the numeric value?

>>> observed_value("ACAGACGAAGGAGCCGCAAAGAAGTTATTAATGGATGAATAATCCCTCAAGATAAATATCTCTCACTTATTTAAA")
0.0994
>>> observed_value("ACAGACGAAGGAGCCGCAAAAAAGTTATTAAGGGATGAATAATCCCTCAAAATAAATATCTCTCACTTATTTAAA")
0.376
>>> observed_value("ACAGACGAAGGAGCCGCAAAAAAGTTATTAAGGGATGAATAATCCCTCAATATAAATACCTCTCACTTATTTAAA")
0.493

# next sequence below
Problem: # input sequence: ACAGACGAAGGAGCCGCAAAGAACTTATTAAGGAATGAATAATCCCTCAATATAAATATCTCTCACTTATTTAAA ; wanted: its cleaved RNA product abundance
Solution: 0.117

* * *

test system: Bacillus subtilis; test: cleaved RNA product abundance (RNA/gDNA barcode ratio) relative to median wild-type variant (ratio to wild type); higher = more accumulation of the downstream cleavage product; details: experiment (reporter, strain, medium): exp 2b: truncated aprE reporter, strain BJT200; cleavage site: cggR-gapA (positions -7 to +36 mutated)
READOUT_NAME: cleaved RNA product abundance
Quick one: just the number, no unit, thanks!

Example sequences with recorded cleaved RNA product abundance:
>>> observed_value("ACAGACGAAGGAGCCGCAAAGAAGTTATTAAAGGATGAATAATCCCTCAATTTAAATATCTCTCACTTATTTAAA")
0.088
>>> observed_value("ACAGACGAAGGAGCCGCAAAGAAATTATTAAGGCATGAATAATCCCTCAATATAAATATCTCTCACTTATTTAAA")
0.109
>>> observed_value("ACAGACGAAGGAGCCGCAAGAAGTTATTAAGGGATGAATAATCCCTCAATATAAATATCTCTCACTTATTTAAAG")
1.27
>>> observed_value("ACAGACGAAGGAGCCGCAAAGAAGTTATTAAGGAATGAAAAATCCCTCAATATAAATATCTCTCACTTATTTAAA")
0.0892
>>> observed_value("ACAGACGAAGGAGCCGCAAAGAACTTATTTAGGGATGAATAATCCCTCAATATAAATATCTCTCACTTATTTAAA")
0.442

Problem: What measured cleaved RNA product abundance is associated with ACAGACGAAGGAGCCGCAAAGAAGTTATTAAGGGATGAACAATCCCTCATTATAAATATCTCTCACTTATTTAAA on Bacillus subtilis?
Solution: 0.22

Problem: Write down the reported cleaved RNA product abundance of ACAGACGAAGGAGCCGCAAAGAAGTTATTAACGGATCAATAATCCCTCAATATAAATATCTCTCACTTATTTAAA , test system: Bacillus subtilis.
Solution: 0.0668

Problem: What reported cleaved RNA product abundance corresponds to ACAGACGAAGGAGCCGCAAAGGAGTTATTAAGGGATGAATAATACCTCAATATAAATATCTCTCACTTATTTAAA on Bacillus subtilis?
Solution: 0.131

Problem: Param readout= cleaved RNA product abundance; system= Bacillus subtilis; entry= ACAGACGAAGGAGCCGCAAAGAATTTATTAAGGGATGAATAATCCCTCAATATTAATATCTCTCACTTATTTAAA ; returns value.
Solution: 0.109

Problem: Entry ACAGACGAAGGAGCCGCAAATAAGTTATTAAGGTATGAATAAACCCTCAATATAAATATCTCTCACTTATTTAAA , system Bacillus subtilis: what cleaved RNA product abundance was measured?
Solution: 0.118

Problem: Hi! What's the reported cleaved RNA product abundance for ACAGACGAAGGAGCCGCAAAGAAGTTATGAAGGGATGAATAATCCATCAATATAAATATCTCTCACTTATTTAAA on Bacillus subtilis?
Solution: 0.185

Problem: What cleaved RNA product abundance appears in the records for this sequence with Bacillus subtilis? ACAGACGAAGGAGCCGCAAAGAAGTTATTAAGGGATGAATAATAACTCAATATAAATATCTCTCACTTATTTAAA
Solution: 0.0902

Problem: What value of cleaved RNA product abundance on Bacillus subtilis does ACAGACGAAGGAGCCGCACAGAAGTTATTAAGGGATGAATAATACCTCAATATAAATATCTCTCACTTATTTAAA have?
Solution: 0.118

Problem: For the record ACAGACGAAGGAGCCGCAAATAAGTTAGTAAGGGATGAATAATCCCTCAATATAAATATCTCTCACTTATTTAAA , what value of cleaved RNA product abundance is listed for Bacillus subtilis?
Solution: 0.305

Problem: Record lookup: for Bacillus subtilis, what cleaved RNA product abundance belongs to ACAGACGAAGGAGCCGCAAAGAAGTTATTAAGGGATCAATATTCCCTCAATATAAATATCTCTCACTTATTTAAA ?
Solution: 0.709
